Target: T1, hIL-4R on cells (STAT6-transfected HEK293, TF1, TF1/A12) (human, UniProt P24394 26-825)
T1 sequence (looked up): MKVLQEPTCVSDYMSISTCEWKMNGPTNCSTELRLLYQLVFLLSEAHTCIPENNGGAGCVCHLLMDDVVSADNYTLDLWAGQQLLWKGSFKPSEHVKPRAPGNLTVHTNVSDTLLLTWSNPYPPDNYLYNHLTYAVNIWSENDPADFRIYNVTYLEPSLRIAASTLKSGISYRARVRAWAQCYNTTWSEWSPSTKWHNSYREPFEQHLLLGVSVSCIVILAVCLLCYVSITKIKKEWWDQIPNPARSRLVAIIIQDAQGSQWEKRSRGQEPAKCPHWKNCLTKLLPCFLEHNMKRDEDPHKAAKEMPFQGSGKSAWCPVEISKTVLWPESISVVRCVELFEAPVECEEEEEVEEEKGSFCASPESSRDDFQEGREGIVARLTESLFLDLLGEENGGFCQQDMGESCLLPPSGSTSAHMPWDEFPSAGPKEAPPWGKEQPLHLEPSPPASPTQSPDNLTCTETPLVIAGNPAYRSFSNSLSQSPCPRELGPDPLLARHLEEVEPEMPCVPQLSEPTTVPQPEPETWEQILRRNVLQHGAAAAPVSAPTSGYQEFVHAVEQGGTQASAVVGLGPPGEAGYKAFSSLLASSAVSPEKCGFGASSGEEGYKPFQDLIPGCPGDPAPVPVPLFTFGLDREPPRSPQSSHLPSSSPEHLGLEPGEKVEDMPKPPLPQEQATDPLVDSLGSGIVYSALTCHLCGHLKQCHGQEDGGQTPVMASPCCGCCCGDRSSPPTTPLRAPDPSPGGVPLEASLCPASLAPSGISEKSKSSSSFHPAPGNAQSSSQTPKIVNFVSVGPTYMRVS
Experiment: cell-based or functional assay
Catalogue of TF1/A12 Bioassay IC50 (proliferation, 20 pM hIL-4) values

Answered cases to consult:
- binder: "VAB 16G1-1 (antibody, V domains shown, 403/405; 407/409 without saying which was assayed; Apparently tested with mouse constant region (anti-mouse IgG capture/detection)) VH: EVKLAESGGGLVQPGGSLRLSCAASGFTFSSHWMNWVRQAPGKGLEWVANIKQDGSDKYYVDSVKGRFTISRDNAKNSLYLQLNSLIAEDTAVYYCARDRGVRPPRGAFDIWGQGTMVTVSS VL: DIQMTQSPSSVSASVGDRVTITCRASQGISSWLAWYQQKPGKAPKLLIYAASSFQSGVPSRFSGSGSGTDFTLTISSLQPEDFATYFCQQANSFPLTFGGGTTVEIK"
  measurement: "0.7 nM"
- binder: "VAB 1H1-2 (antibody, V domains shown, Apparently tested with mouse constant region (anti-mouse IgG capture/detection)) VH: QVQLVQSGAEVKKPGASVKVSCKASGYTFTSYGISWVRQAPGQGLEWMGWISVYNGNTNYAQKLQGRVTMTTDTSTSTAYMDLRSLRSDDAAVYYCARGSGYDFDYWGQGTLVTVSS VL: AIQMTQSPSSLSASVGDRVTITCRASQGIRNALGWYQQKPGKAPKLLIYAASSLQSGVPSRFSGSGSGTDFTLTISSLQSEDFATYYCLQDYNYPYTFGQGTKLEIK"
  measurement: "> 50 nM"

Item VAB 7B9-3 (antibody, V domains shown, Apparently tested with mouse constant region (anti-mouse IgG capture/detection)) VH: QVQLVQSGAEVKKPGASVKVSCKDSAYTFNRYGISWVRQAPGQGLEWMGWISAYTGNTVYAQKLQGRVTMTTDNSTSTAYMELRSLRSDDTAVYYCARDKSIFGVVRGFDYWGQGTLVTVSS VL: EIVMTQSPVTLSLSPGERATLPCRASQSVSSSLAWYQQKAGQSPRLLIYGASTRATGIPARFSGSGSGTEFTLTISNLQSEDFAVYYCQQYNNWPLTFGGGTKVEIK has what recorded TF1/A12 Bioassay IC50 (proliferation, 20 pM hIL-4)?
8.2 nM
